Values were extracted from patent US12398132B2.

target_or_test_system: FLT3(ITD) (Homo sapiens, UniProt P36888)
procedure_summary: ADP Glo kinase assay, FLT3(ITD)
condition_notes: apparent Ki calculated from Km (ATP) and IC50, read-out: FLT3 inhibition Ki
Define the label as fulfilled when Ki is strictly less than 60 nM and as not fulfilled in all remaining cases.

[[record]]
structure = "CC(=O)N1CCN(c2ccc(Nc3nccc(-c4cnc5ccc(-c6cnc(N7CCN(C)CC7)nc6)cn45)n3)nc2)CC1"
target_or_test_system = "FLT3(ITD) (Homo sapiens, UniProt P36888)"
label = "not fulfilled"

[[record]]
structure = "CC(=O)N1CCN(c2ccc(Nc3nccc(-c4cnc5ccc(-c6ccn(C)n6)cn45)n3)nc2)CC1"
target_or_test_system = "FLT3(ITD) (Homo sapiens, UniProt P36888)"
label = "fulfilled"

[[record]]
structure = "CC(=O)N1CCN(c2ccc(Nc3nccc(-c4cnc5ccc(-c6ccc(C)o6)cn45)n3)nc2)CC1"
target_or_test_system = "FLT3(ITD) (Homo sapiens, UniProt P36888)"
label = "fulfilled"

[[record]]
structure = "CCC(=O)N1CCN(c2ccc(Nc3nccc(-c4cnc5ccccn45)n3)nc2)CC1"
target_or_test_system = "FLT3(ITD) (Homo sapiens, UniProt P36888)"
label = "fulfilled"

[[record]]
structure = "CN1CCN(c2ccc(Nc3nccc(-c4cnc5ccc(-c6cn[nH]c6)cn45)n3)nc2)CC1"
target_or_test_system = "FLT3(ITD) (Homo sapiens, UniProt P36888)"
label = "fulfilled"

[[record]]
structure = "CC(=O)N1CCN(c2ccc(Nc3nccc(-c4cnc5ccc(-c6cncnc6)cn45)n3)nc2)CC1"
target_or_test_system = "FLT3(ITD) (Homo sapiens, UniProt P36888)"
label = "not fulfilled"

[[record]]
structure = "Cc1ccc(Nc2nccc(-c3cnc4ccccn34)n2)nc1"
target_or_test_system = "FLT3(ITD) (Homo sapiens, UniProt P36888)"
label = "fulfilled"

[[record]]
structure = "Ic1ccc(Nc2nccc(-c3cnc4ccccn34)n2)nc1"
target_or_test_system = "FLT3(ITD) (Homo sapiens, UniProt P36888)"
label = "not fulfilled"

[[record]]
structure = "CC(=O)N1CCN(c2ccc(Nc3nccc(-c4cnc5ccc(C6=CCN(C(=O)OC(C)(C)C)CC6)cn45)n3)nc2)CC1"
target_or_test_system = "FLT3(ITD) (Homo sapiens, UniProt P36888)"
label = "not fulfilled"

[[record]]
structure = "c1ccn2c(-c3ccnc(Nc4ccc(N5CCCCC5)cn4)n3)cnc2c1"
target_or_test_system = "FLT3(ITD) (Homo sapiens, UniProt P36888)"
label = "not fulfilled"

[[record]]
structure = "CC(=O)N1CCN(c2ccc(Nc3nccc(-c4cnc5ccc(Cl)cn45)n3)nc2)CC1"
target_or_test_system = "FLT3(ITD) (Homo sapiens, UniProt P36888)"
label = "fulfilled"

[[record]]
structure = "CC(=O)N1CCN(c2ccc(Nc3nccc(-c4cnc5ccc(Br)cn45)n3)nc2)CC1"
target_or_test_system = "FLT3(ITD) (Homo sapiens, UniProt P36888)"
label = "fulfilled"

[[record]]
structure = "CN1CCN(c2ccc(Nc3nccc(-c4cnc5ccc(Br)cn45)n3)nc2)CC1"
target_or_test_system = "FLT3(ITD) (Homo sapiens, UniProt P36888)"
label = "fulfilled"

[[record]]
structure = "CC(=O)N1CCN(c2ccc(Nc3nccc(-c4cnc5ccc(I)cn45)n3)nc2)CC1"
target_or_test_system = "FLT3(ITD) (Homo sapiens, UniProt P36888)"
label = "fulfilled"

[[record]]
structure = "CN(C)C1CCN(c2ccc(Nc3ncc(F)c(-c4cnc5ccc(-c6ccccc6)cn45)n3)nc2)CC1"
target_or_test_system = "FLT3(ITD) (Homo sapiens, UniProt P36888)"
label = "fulfilled"

[[record]]
structure = "Clc1ccc(Nc2nccc(-c3cnc4ccccn34)n2)nc1"
target_or_test_system = "FLT3(ITD) (Homo sapiens, UniProt P36888)"
label = "not fulfilled"

[[record]]
structure = "CC(=O)N1CCN(c2ccc(Nc3nccc(-c4cnc5ccc(-c6cc[nH]n6)cn45)n3)nc2)CC1"
target_or_test_system = "FLT3(ITD) (Homo sapiens, UniProt P36888)"
label = "fulfilled"

[[record]]
structure = "CN1CCN(c2ccc(Nc3nccc(-c4cnc5ccc(-c6cccnc6)cn45)n3)nc2)CC1"
target_or_test_system = "FLT3(ITD) (Homo sapiens, UniProt P36888)"
label = "fulfilled"

[[record]]
structure = "CS(=O)(=O)N1CCN(c2ccc(Nc3nccc(-c4cnc5ccc(Br)cn45)n3)nc2)CC1"
target_or_test_system = "FLT3(ITD) (Homo sapiens, UniProt P36888)"
label = "not fulfilled"

[[record]]
structure = "CC(=O)N1CCN(c2ccc(Nc3nccc(-c4cnc5ccc(-c6cnn(C7CCN(C(=O)OC(C)(C)C)CC7)c6)cn45)n3)nc2)CC1"
target_or_test_system = "FLT3(ITD) (Homo sapiens, UniProt P36888)"
label = "not fulfilled"

[[record]]
structure = "CN1CCN(c2ccc(Nc3nccc(-c4cnc5ccc(-c6cnn(C)c6)cn45)n3)nc2)CC1"
target_or_test_system = "FLT3(ITD) (Homo sapiens, UniProt P36888)"
label = "fulfilled"

[[record]]
structure = "CN1CCN(c2ccc(Nc3nccc(-c4cnc5ccccn45)n3)nc2)CC1"
target_or_test_system = "FLT3(ITD) (Homo sapiens, UniProt P36888)"
label = "not fulfilled"

[[record]]
structure = "c1ccc(Nc2nccc(-c3cnc4ccccn34)n2)nc1"
target_or_test_system = "FLT3(ITD) (Homo sapiens, UniProt P36888)"
label = "fulfilled"

[[record]]
structure = "Brc1ccc(Nc2nccc(-c3cnc4ccccn34)n2)nc1"
target_or_test_system = "FLT3(ITD) (Homo sapiens, UniProt P36888)"
label = "not fulfilled"

[[record]]
structure = "CCN1CCN(Cc2ccc(Nc3ncc(F)c(-c4cnc5ccc(-c6ccccc6)cn45)n3)nc2)CC1"
target_or_test_system = "FLT3(ITD) (Homo sapiens, UniProt P36888)"
label = "not fulfilled"

[[record]]
structure = "CC(C)(C)OC(=O)N1CC=C(c2ccc(Nc3nccc(-c4cnc5ccccn45)n3)nc2)CC1"
target_or_test_system = "FLT3(ITD) (Homo sapiens, UniProt P36888)"
label = "not fulfilled"

[[record]]
structure = "CC(=O)N1CCN(c2ccc(Nc3nccc(-c4cnc5ccc(-c6cnn(C(F)F)c6)cn45)n3)nc2)CC1"
target_or_test_system = "FLT3(ITD) (Homo sapiens, UniProt P36888)"
label = "fulfilled"

[[record]]
structure = "CN1CCN(c2ccc(Nc3nccc(-c4cnc5ccc(-c6cncnc6)cn45)n3)nc2)CC1"
target_or_test_system = "FLT3(ITD) (Homo sapiens, UniProt P36888)"
label = "not fulfilled"

